Test: Acute toxicity (LD50) in rats
Conditions: rat, in vivo, other: injected (kind of injection not stated); rats injected with increasing doses
LD50 values for the compounds below.
Numbers only; they are read as mg/kg.

smiles.structure | display.unit | LD50
N=c1c2cnn(-c3nc4c(ccc5ccccc54)s3)c2ncn1NC(=O)c1ccccc1 | mg/kg | 325
Nc1ncnc2c1cnn2-c1nc2c(ccc3ccccc32)s1 | mg/kg | 175

Now turn to the next compound.
Sample Nc1n[nH]c2c1cnn2-c1nc2c(ccc3ccccc32)s1 ; LD50 observed: 266

* * *

Measured % (Inhibition), in vivo anti-androgen activity, listed per entry.
Tested on: castrated immature rats
Test: In vivo anti-androgenic activity in castrated immature rats treated with testosterone propionate
Design: species or system rat
Conditions: inhibition of TP effect (TP 0.5 mg/kg s.c. once daily for 5 days), tested compound 10-30 mg/kg p.o.
Note: unit % is implicit; provide only the numeric part.

In the examples that follow, each entry is paired with its recorded % (Inhibition), in vivo anti-androgen activity.
compound | tested.on | readout.value
CC(O)(CS(=O)(=O)c1ccc(F)cc1)C(=O)Nc1ccc(C#N)c(C(F)(F)F)c1 (stereo not drawn) [Bicalutamide, reference compound] | castrated immature rats | 75
N=c1sc(=S)[nH]c2c1cnn2-c1nc2c(ccc3ccccc32)s1 [Compound 6] | castrated immature rats | 88.76
N=c1c2cnn(-c3nc4c(ccc5ccccc54)s3)c2ncn1NC(=O)c1ccccc1 [Compound 11] | castrated immature rats | 90.01
Nc1ncnc2c1cnn2-c1nc2c(ccc3ccccc32)s1 [Compound 3] | castrated immature rats | 91
CCO/C=N\c1c(C#N)cnn1-c1nc2c(ccc3ccccc32)s1 [Compound 8] | castrated immature rats | 85.43

Entry CCOC1SCC2NC(=O)c3cnn(-c4nc5c(ccc6ccccc65)s4)c3N21 (stereo not drawn) [Compound 13] under castrated immature rats had % (Inhibition), in vivo anti-androgen activity of 97.56

Fill in: castrated immature rats % (Inhibition), in vivo anti-androgen activity for Nc1nc(=S)[nH]c2c1cnn2-c1nc2c(ccc3ccccc32)s1 [Compound 5] = 89.09

Reported % (Inhibition), in vivo anti-androgen activity (castrated immature rats) for entry Nc1n[nH]c2c1cnn2-c1nc2c(ccc3ccccc32)s1 [Compound 4] is 93.98
